Assay: HepG2 cell viability effects, profiling panel, calcein-AM fluorescence, 48 h, basal (AID 1164); also: test concentration not given here
Run parameters: higher = more signal
// values below are reported z-score

Reference set (6 entries):
C=CCOC(=O)[C@@H]1[C@H]2C(=O)O[C@H](c3ccccc3)[C@H](c3ccccc3)N2[C@H](c2ccc(OCCOC(=O)[C@H]3C[C@H]4C(=O)N[C@@H](CCCCN(C)C)C(=O)N4[C@H]3c3cccc(OCCO)c3)cc2)[C@@]12C(=O)Nc1ccccc12: -0.113
Cc1ccc(S[C@]2(C(=O)NCc3ccccc3)CC(=O)N(Cc3ccccc3C(F)(F)F)[C@@H]2c2ccc(CO)cc2I)cc1: 0.024
COC(=O)[C@@]1(Cc2ccc(F)cc2)[C@H]2c3cc(C(=O)N(C)C)n(CCF)c3C[C@H]2CN1C(=O)c1ccccc1: 0.121
C=C(C(=O)CC[C@H](OC(=O)c1ccccc1-c1ccccc1C(=O)O)c1ccc(OCCO)cc1)C(C)C: -0.659
CN1C(=O)C2C=CC(C(O)c3ccc([N+](=O)[O-])cc3)N(Nc3ccccc3)C2C1=O (configuration not stated): -0.581
[N-]=[N+]=Nc1ccccc1C[C@@]1(C(=O)NCC(O)CO)N=C(c2ccc(OCCCO)cc2)O[C@@H]1c1ccccc1N=[N+]=[N-] (some centres not stated): -4.63

Attention now turns to another entry.
Query string: Output z-score of `CC(C)(C)OC(=O)CC[C@@]1(C(=O)N2CCOCC2)N=C(c2ccc(OCCCO)cc2)O[C@@H]1c1ccccc1CN=[N+]=[N-]`
Result string: -0.261

The reported numbers originate from PubChem BioAssay.
